B1: 2M8U (parent)
chain: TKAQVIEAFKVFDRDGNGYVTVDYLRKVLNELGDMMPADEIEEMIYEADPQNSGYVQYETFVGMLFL

Variants of: B1
Assay: folding stability dG (cDNA display proteolysis); higher = more stable
Conditions: PBS, room temperature
Rule: folding stability dG under 3 kcal/mol gives 0, otherwise 1.

[[record]]
mutation_code = "V5H"
assigned_class = 0

[[record]]
mutation_code = "E7D"
assigned_class = 1

[[record]]
mutation_code = "V62W"
assigned_class = 0

[[record]]
mutation_code = "V28T"
assigned_class = 0

[[record]]
mutation_code = "V20F"
assigned_class = 0

[[record]]
mutation_code = "N30F"
assigned_class = 1

[[record]]
mutation_code = "Y19T"
assigned_class = 1

[[record]]
mutation_code = "G33Y"
assigned_class = 1

[[record]]
mutation_code = "T21A"
assigned_class = 1

